- tested.on: HEK293 cells with stable expression of the GRIN1 gene and tetracycline-inducible expression of the GRIN2B gene (NMDA receptor, NR2B) (Homo sapiens)
- assay.info: Fluo-8 Ca2+ flux assay: reversal of Ro 25-6981-mediated suppression of the Ca2+ response to co-agonist (glutamate/glycine)
- Format: cell-based
- test.conditions: reversal of the Ro 25-6981 suppression of the Ca2+ response to co-agonist (glutamate/glycine)
endpoint: Response Recovered (%)

Look over these answered cases.
                                   compound                endpoint  observed_measurement
0  O=C(Cn1cnc2csc(-c3ccc(Cl)c(F)c3)c2c1=O)N1CCCC1  Response Recovered (%)                    15
1  O=C(Cn1ccc2scc(-c3ccc(F)c(Cl)c3)c2c1=O)N1CC(F)(C2CC2)C1  Response Recovered (%)                    63
2  Cc1cn(CC(=O)N2CC(F)(F)C2)c(=O)c2c(-c3ccc(F)c(Cl)c3)ccn12  Response Recovered (%)                    20

(a) O=C(Cn1cc(CN2CC(F)C2)c2scc(-c3ccc(F)c(Cl)c3)c2c1=O)N1CCC(F)C1 (centres unmarked)
(b) O=C(Cn1ccc2[nH]cc(-c3ccc(Cl)c(Cl)c3)c2c1=O)N1CCC(F)C1 (centres unmarked)
(c) CCC1(F)CN(C(=O)Cn2ccc3scc(-c4cnc(F)c(C)c4)c3c2=O)C1
(d) O=C(Cn1ccc2scc(-c3ccc(F)c(C(F)(F)F)c3)c2c1=O)N1CC(F)(CF)C1
(e) Cc1nc(-c2ccc(F)c(Cl)c2)c2c(=O)n(CC(=O)N3CC(F)(F)C3)ccn12
Exercise: Hey, quick one: sort these by Response Recovered (%), low to high? The labels, placed in the requested order, form the answer.
Solution: e, c, a, b, d
(e: 7.3%, c: 20%, a: 53%, b: 84%, d: 140%)

----------
- tested.on: HEK293 cells with stable expression of the GRIN1 gene and tetracycline-inducible expression of the GRIN2B gene (NMDA receptor, NR2B) (Homo sapiens, UniProt Q13224)
- Sequence (Q13224 27-1484, other chains not shown): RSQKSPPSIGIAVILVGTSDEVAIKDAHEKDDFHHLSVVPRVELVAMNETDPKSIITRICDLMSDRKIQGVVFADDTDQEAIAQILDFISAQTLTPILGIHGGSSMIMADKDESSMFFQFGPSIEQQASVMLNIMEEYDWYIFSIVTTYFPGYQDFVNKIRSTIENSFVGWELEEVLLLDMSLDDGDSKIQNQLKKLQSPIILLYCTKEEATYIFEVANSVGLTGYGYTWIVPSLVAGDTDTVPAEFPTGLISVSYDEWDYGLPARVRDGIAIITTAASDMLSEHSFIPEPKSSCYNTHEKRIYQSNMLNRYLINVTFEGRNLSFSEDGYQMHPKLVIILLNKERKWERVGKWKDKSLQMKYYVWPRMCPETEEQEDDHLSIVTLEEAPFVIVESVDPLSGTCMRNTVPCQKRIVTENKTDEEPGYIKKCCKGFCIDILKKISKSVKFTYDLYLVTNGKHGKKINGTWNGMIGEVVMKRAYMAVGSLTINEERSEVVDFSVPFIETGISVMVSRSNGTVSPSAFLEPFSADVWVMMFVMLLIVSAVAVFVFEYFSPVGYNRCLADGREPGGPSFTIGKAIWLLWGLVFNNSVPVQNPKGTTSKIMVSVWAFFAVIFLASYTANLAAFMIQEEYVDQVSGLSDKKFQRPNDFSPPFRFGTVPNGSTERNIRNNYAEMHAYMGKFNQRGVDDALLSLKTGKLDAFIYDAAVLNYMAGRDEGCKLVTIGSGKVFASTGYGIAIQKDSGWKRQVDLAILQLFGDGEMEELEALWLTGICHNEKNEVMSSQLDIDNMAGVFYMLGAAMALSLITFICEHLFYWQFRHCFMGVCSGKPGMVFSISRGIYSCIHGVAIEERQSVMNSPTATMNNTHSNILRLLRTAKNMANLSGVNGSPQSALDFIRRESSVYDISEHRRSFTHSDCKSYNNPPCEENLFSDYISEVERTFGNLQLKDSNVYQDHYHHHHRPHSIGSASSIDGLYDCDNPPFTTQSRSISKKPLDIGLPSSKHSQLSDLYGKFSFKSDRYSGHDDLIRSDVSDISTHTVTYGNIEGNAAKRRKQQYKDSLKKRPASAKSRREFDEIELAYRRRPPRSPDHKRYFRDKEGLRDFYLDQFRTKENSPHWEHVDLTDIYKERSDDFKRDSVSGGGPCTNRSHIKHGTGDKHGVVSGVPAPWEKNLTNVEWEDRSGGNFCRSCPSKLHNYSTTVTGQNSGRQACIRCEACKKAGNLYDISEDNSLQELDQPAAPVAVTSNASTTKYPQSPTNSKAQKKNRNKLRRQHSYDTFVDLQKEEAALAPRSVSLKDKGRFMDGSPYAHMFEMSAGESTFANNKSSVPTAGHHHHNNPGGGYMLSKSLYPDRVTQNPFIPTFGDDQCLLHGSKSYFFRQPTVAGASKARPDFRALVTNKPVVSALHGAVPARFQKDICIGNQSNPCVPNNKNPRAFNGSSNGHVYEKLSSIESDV
- assay.info: Fluo-8 Ca2+ flux assay: reversal of Ro 25-6981-mediated suppression of the Ca2+ response to co-agonist (glutamate/glycine); also: test concentration or dose not given here
- Type: cell-based
- test.conditions: reversal of the Ro 25-6981 suppression of the Ca2+ response to co-agonist (glutamate/glycine)
endpoint: Response Recovered (%)

Look over these answered cases.
>>> df
                                   compound  value_units  observed_measurement
0  O=C(Cn1ccc2cccc(-c3ccc(Cl)c(C(F)(F)F)c3)c2c1=O)N1CC(F)(F)C1 [Example 301]            %                    28
1  CC1(F)CN(C(=O)Cn2ccc3c(c(-c4ccc(F)c(Cl)c4)cn3CC(F)(F)F)c2=O)C1 [Example 280]            %                    73
2  O=C(Cn1cnc2c(c(-c3ccc(F)c(Cl)c3)cn2C2CC2)c1=O)N1CCCC1 [Example 192]            %                    42
3  Cn1cc(-c2ccc(F)c(Cl)c2)c2c(=O)n(CC(=O)N3CCC(F)C3)ccc21 (stereo not shown) [Example 247]            %                    51
4  O=C(Cn1ccn2c(C3CC3)nc(-c3ccc(F)c(Cl)c3)c2c1=O)N1CC(F)(CF)C1 [Example 439]            %                   120
5  O=C(Cn1cc(CN2CCCC2)c2scc(-c3ccc(F)c(C(F)(F)F)c3)c2c1=O)N1CCC(F)C1 (stereo not shown) [Example 112]            %                    89
6  Cc1cn(CC(=O)N2CCC(F)C2)c(=O)c2c(-c3ccc(F)c(C(F)(F)F)c3)cc(Br)n12 (stereo not shown) [Example 412]            %                    38
7  O=C(Cn1ccc2scc(-c3ccc(Cl)c(C(F)(F)F)c3)c2c1=O)N1CC[C@H](F)C1 [Example 15]            %                    95

(1) O=C(Cn1ccc2c(c(-c3ccc(F)c(C(F)(F)F)c3)cn2-c2ccccn2)c1=O)N1CCC(F)C1 (stereo not shown) [Example 225]
(2) O=C(Cn1ccn2ccc(-c3ccc(F)c(Cl)c3)c2c1=O)N1CC(F)(C2CC2)C1 [Example 398]
Exercise: Between the entries labeled 1 and 2 , whose measured Response Recovered (%) is lower? Indicate your choice by writing its label.
Solution: 2

(A) O=C(Cn1ccc2scc(-c3ccc(Cl)c(Cl)c3)c2c1=O)N1CC[C@@H](F)C1 [Example 29]
(B) CC1(F)CN(C(=O)Cn2ccc3scc(-c4cncc(Cl)n4)c3c2=O)C1 [Example 145]
(C) COCn1cc(-c2ccc(F)c(C(F)(F)F)c2)c2c(=O)n(CC(=O)N3CCC(F)C3)cnc21 (stereo not shown) [Example 189]
(D) O=C(Cn1ccc2c(c(-c3ccc(F)c(Cl)c3)cn2CCF)c1=O)N1CCC(F)C1 (stereo not shown) [Example 253]
Exercise: Sort these compounds on Response Recovered (%) so the largest reading comes first. The labels, placed in the requested order, form the answer.
Solution: A, D, C, B
(A: 104%, D: 66%, C: 39%, B: 3%)

(I) CC1CN(C(=O)Cn2ccc3scc(-c4ccc(F)c(C(F)(F)F)c4)c3c2=O)C1 [Example 60]
(II) O=C(Cn1cnc2[nH]cc(-c3ccc(Cl)c(F)c3)c2c1=O)N1CC(F)(F)C1 [Example 167]
(III) O=C(Cn1cnc2snc(-c3ccc(Cl)cc3)c2c1=O)N1CCCC1 [Example 380]
Exercise: Sort these compounds on Response Recovered (%) so the largest reading comes first. The labels, placed in the requested order, form the answer.
Solution: I, II, III
(I: 76%, II: 35%, III: 6%)

(A) O=C(Cn1ccc2scc(-c3ccc(Cl)c(Cl)c3)c2c1=O)N1CC[C@H](F)C1 [Example 30]
(B) O=C(Cn1ccc2scc(-c3ccc(Cl)c(F)c3)c2c1=O)N1CCCC1 [Example 2]
Exercise: Task for the reader: decide whether A or B has the larger Response Recovered (%). Indicate your choice by writing its label.
Solution: A

Source: patent US12162890B2
